Items are presented alongside their recorded Ki.
- SYSTEM_UNDER_TEST: GABA A receptor alpha-3/beta-2/gamma-2 (Rattus norvegicus, UniProt P18508+P20236+P63138)
- Sequence (P20236 whole entry, one chain of several): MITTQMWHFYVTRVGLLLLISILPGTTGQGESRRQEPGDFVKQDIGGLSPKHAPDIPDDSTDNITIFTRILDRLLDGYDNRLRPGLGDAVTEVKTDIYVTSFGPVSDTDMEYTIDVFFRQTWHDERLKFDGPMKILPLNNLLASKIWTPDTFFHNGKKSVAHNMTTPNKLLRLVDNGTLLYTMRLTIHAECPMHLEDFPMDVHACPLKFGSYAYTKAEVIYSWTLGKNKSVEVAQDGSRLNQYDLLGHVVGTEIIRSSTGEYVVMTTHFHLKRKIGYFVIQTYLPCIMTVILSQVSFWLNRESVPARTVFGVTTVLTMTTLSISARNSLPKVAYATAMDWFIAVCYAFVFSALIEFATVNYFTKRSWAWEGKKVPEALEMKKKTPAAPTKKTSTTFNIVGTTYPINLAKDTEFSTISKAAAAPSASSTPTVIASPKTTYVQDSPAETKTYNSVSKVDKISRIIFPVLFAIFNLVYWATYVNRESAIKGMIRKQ
- METHOD_NOTES: Binding affinity for recombinant rat GABA-A receptor alpha-3-beta-2-gamma-2 subunits expressed in HEK293 cells
Please state the figure in nM; there is no need to write the unit.

Examples from the recorded data:
GIVEN_SMILES | MEASURED_NUMBER
Oc1c(-c2ccsc2)cnc2c(-c3cccc(Br)c3)cnn12 | 111
Oc1c(-c2ccsc2)cnc2c(-c3ccsc3)cnn12 | 196

Consider now this further compound.
Ask | Find the measured Ki of Oc1c(-c2ccsc2)cnc2c(-c3cccc(C(F)(F)F)c3)cnn12 and report it.
Reply | 89

* * *

- SYSTEM_UNDER_TEST: GABA-A receptor; alpha-1/beta-2/gamma-2 (Rattus norvegicus, UniProt P18508+P62813+P63138)
- Sequence (P18508 whole entry): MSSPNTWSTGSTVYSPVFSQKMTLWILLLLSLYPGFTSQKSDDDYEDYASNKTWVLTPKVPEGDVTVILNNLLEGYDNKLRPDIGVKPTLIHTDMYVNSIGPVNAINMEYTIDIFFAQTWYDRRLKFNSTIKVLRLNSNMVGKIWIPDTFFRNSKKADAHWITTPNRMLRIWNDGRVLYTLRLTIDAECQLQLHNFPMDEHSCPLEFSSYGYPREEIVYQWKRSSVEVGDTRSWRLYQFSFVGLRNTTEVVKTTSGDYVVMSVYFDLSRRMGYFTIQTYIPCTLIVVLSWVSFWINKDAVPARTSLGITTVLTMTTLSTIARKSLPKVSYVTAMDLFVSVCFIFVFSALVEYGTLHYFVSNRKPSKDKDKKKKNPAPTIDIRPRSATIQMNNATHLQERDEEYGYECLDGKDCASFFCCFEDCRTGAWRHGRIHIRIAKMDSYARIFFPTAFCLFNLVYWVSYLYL
- Sequence (P62813 whole entry): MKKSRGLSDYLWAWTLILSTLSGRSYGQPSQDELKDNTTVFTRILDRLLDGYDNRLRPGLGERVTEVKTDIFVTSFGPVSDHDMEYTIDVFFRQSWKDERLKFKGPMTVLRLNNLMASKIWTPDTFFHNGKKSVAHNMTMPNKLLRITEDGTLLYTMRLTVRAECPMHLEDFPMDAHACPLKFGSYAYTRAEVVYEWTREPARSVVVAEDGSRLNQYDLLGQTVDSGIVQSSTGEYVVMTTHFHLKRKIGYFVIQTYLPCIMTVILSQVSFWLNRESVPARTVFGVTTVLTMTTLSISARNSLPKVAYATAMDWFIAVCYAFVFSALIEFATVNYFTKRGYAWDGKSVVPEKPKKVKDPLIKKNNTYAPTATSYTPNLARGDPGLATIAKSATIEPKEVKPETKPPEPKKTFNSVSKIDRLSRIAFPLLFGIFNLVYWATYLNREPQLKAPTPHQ
- Sequence (P63138 whole entry): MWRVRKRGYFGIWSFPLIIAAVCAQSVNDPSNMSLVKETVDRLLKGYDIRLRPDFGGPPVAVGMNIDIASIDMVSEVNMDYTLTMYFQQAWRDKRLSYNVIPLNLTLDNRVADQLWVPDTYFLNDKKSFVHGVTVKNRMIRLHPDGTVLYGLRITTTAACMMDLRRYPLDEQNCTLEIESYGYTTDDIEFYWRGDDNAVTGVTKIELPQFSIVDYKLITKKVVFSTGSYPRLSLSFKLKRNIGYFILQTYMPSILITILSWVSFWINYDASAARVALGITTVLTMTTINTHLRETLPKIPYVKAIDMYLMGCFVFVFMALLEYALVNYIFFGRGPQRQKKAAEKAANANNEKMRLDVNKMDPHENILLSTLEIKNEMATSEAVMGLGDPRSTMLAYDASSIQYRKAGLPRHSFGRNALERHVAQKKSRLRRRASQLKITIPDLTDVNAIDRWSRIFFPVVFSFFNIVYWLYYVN
- METHOD_NOTES: Binding affinity for recombinant rat GABA-A receptor alpha-1-beta-2-gamma-2 subunits expressed in HEK293 cells
Threshold-based label: Ki under 20 nM gives satisfied, Ki not under 20 nM gives not satisfied.

GIVEN_SMILES | ASSIGNED_CLASS
Oc1c(-c2ccsc2)cnc2c(-c3ccsc3)cnn12 | not satisfied

Ask | Lab note: confirm whether the reported Ki for this molecule is below 20 nM, equality not counting. molecule: COc1cccc(-c2cnn3c(O)c(-c4ccsc4)cnc23)c1
Reply | not satisfied

Ask | Lab note: confirm whether the reported Ki for this molecule is below 20 nM, equality not counting. molecule: Oc1c(-c2ccsc2)cnc2c(-c3cccc4ccccc34)cnn12
Reply | not satisfied

Ask | Lab note: confirm whether the reported Ki for this molecule is below 20 nM, equality not counting. molecule: Oc1c(-c2ccsc2)cnc2c(-c3ccccn3)cnn12
Reply | satisfied

Ask | Lab note: confirm whether the reported Ki for this molecule is below 20 nM, equality not counting. molecule: Oc1c(-c2ccsc2)cnc2c(-c3cccnc3)cnn12
Reply | not satisfied

Ask | Lab note: confirm whether the reported Ki for this molecule is below 20 nM, equality not counting. molecule: Oc1c(-c2ccsc2)cnc2c(-c3cccc(Br)c3)cnn12
Reply | satisfied

Ask | Lab note: confirm whether the reported Ki for this molecule is below 20 nM, equality not counting. molecule: Oc1c(-c2ccsc2)cnc2c(-c3cccc(C(F)(F)F)c3)cnn12
Reply | satisfied

* * *

- SYSTEM_UNDER_TEST: GABA A receptor alpha-5/beta-3/gamma-2 (Rattus norvegicus, UniProt P18508+P19969+P63079)
- Sequence (P19969 whole entry, one chain of several): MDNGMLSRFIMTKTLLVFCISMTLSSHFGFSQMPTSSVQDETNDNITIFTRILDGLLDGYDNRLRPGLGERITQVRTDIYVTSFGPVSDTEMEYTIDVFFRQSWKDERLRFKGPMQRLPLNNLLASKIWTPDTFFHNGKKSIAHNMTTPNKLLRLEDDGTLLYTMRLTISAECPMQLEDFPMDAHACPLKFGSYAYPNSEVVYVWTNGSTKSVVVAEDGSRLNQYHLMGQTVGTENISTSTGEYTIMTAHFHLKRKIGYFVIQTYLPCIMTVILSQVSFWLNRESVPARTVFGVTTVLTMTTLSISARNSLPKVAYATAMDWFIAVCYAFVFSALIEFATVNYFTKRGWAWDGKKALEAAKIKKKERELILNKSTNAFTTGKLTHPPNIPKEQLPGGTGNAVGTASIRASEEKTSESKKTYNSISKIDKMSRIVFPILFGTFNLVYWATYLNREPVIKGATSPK
- Sequence (P63079 whole entry, one chain of several): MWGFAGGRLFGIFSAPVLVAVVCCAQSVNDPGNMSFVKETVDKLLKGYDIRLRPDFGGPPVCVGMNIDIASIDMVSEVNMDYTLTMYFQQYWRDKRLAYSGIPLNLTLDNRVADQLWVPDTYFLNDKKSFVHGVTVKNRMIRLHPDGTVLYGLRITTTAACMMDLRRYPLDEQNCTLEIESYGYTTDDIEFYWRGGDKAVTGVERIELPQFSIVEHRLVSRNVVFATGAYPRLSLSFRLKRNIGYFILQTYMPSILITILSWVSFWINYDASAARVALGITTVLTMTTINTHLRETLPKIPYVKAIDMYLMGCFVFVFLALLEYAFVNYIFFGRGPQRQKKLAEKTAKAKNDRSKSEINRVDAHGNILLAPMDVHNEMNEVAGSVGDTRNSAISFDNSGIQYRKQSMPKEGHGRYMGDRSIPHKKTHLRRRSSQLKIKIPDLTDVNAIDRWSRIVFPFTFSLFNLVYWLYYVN
- METHOD_NOTES: Binding affinity for recombinant rat GABA-A receptor alpha-5-beta-3-gamma-2 subunits expressed in HEK 293 cells
Threshold-based label: Ki under 200 nM gives class 1, Ki not under 200 nM gives class 0.

These solved cases illustrate the format of a correct answer.
GIVEN_SMILES | ASSIGNED_CLASS
Oc1c(-c2ccsc2)cnc2c(-c3cccc(Br)c3)cnn12 | class 1
Oc1c(-c2ccsc2)cnc2c(-c3ccccn3)cnn12 | class 0

Ask | Lab note: confirm whether the reported Ki for this compound is below 200 nM, equality not counting. compound: Oc1c(-c2ccsc2)cnc2c(-c3ccsc3)cnn12
Reply | class 0

Ask | Lab note: confirm whether the reported Ki for this compound is below 200 nM, equality not counting. compound: Oc1c(-c2ccsc2)cnc2c(-c3cccnc3)cnn12
Reply | class 0

* * *

Items are presented alongside their recorded inhibition.
- SYSTEM_UNDER_TEST: GABA-A receptor; anion channel (Bos taurus) (UniProt P10063+P08220+P20237+P08219+P10064+P22300)
- METHOD_NOTES: Percent inhibition of [3H]Ro-151788 binding to bovine brain GABA-A central benzodiazepine receptor at 0.2 nM

Examples from the recorded data:
GIVEN_SMILES | RESULT
Oc1c(-c2ccsc2)cnc2c(-c3cccc(Br)c3)cnn12 | 87%
Oc1c(-c2ccsc2)cnc2c(-c3cccc(C(F)(F)F)c3)cnn12 | 96%
Oc1c(-c2ccsc2)cnc2c(-c3ccccc3)cnn12 | 94%
Cc1cccc(-c2cnn3c(O)c(-c4ccsc4)cnc23)c1 | 97%
Oc1c(-c2ccsc2)cnc2c(-c3ccc4ccccc4c3)cnn12 | 30%

Ask | Find the measured inhibition of Oc1c(-c2ccsc2)cnc2c(-c3ccc(F)cc3)cnn12 and report it.
Reply | 99%

Ask | Find the measured inhibition of Oc1c(-c2ccsc2)cnc2c(-c3cccc4ccccc34)cnn12 and report it.
Reply | 92%

Ask | Find the measured inhibition of Oc1c(-c2ccsc2)cnc2c(Cc3ccccc3)cnn12 and report it.
Reply | 55%

Ask | Find the measured inhibition of Oc1c(-c2ccsc2)cnc2c(-c3cccnc3)cnn12 and report it.
Reply | 100%

Ask | Find the measured inhibition of COc1cccc(-c2cnn3c(O)c(-c4ccsc4)cnc23)c1 and report it.
Reply | 92%

Ask | Find the measured inhibition of Oc1c(-c2ccsc2)cnc2c(-c3ccsc3)cnn12 and report it.
Reply | 100%

Ask | Find the measured inhibition of Oc1c(-c2ccsc2)cnc2c(-c3cccc(F)c3)cnn12 and report it.
Reply | 92%

Ask | Find the measured inhibition of Oc1c(-c2ccsc2)cnc2c(-c3ccccn3)cnn12 and report it.
Reply | 98%

* * *

Items are presented alongside their recorded Time.
- Tested on: Mus musculus
- METHOD_NOTES: Antianxiety activity was tested in mice at dose of 10 mg/kg in light
- Type: functional

Ask | Find the measured Time of CN1C(=O)CN=C(c2ccccc2)c2cc(Cl)ccc21.Oc1c(-c2ccsc2)cnc2c(-c3ccccn3)cnn12 and report it.
Reply | 120.9 s

Ask | Find the measured Time of Oc1c(-c2ccsc2)cnc2c(-c3cccc(C(F)(F)F)c3)cnn12 and report it.
Reply | 69.4 s

Ask | Find the measured Time of Oc1c(-c2ccsc2)cnc2c(-c3ccsc3)cnn12 and report it.
Reply | 94.9 s

Ask | Find the measured Time of Oc1c(-c2ccsc2)cnc2c(-c3ccccn3)cnn12 and report it.
Reply | 90.6 s

* * *

- SYSTEM_UNDER_TEST: GABA A receptor alpha-2/beta-2/gamma-2 (Rattus norvegicus, UniProt P18508+P23576+P63138)
- Sequence (P23576 whole entry, one chain of several): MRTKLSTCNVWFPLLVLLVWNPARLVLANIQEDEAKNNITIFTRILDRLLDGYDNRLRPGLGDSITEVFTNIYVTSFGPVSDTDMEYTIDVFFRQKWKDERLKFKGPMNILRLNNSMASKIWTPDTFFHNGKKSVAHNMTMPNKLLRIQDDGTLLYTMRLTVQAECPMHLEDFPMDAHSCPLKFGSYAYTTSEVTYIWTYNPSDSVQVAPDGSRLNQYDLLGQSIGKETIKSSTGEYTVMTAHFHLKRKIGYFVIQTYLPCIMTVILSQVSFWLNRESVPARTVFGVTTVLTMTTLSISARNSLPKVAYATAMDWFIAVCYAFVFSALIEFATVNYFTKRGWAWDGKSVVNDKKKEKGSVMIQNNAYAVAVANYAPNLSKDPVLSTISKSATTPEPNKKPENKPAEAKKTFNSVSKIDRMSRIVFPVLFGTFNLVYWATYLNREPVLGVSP
- METHOD_NOTES: Binding affinity for recombinant rat alpha-2-beta-2-gamma-2 GABA-A receptor subunits expressed in HEK293 cells
- Type: cell-based
READOUT_KIND: Ki
The answer consists of two parts: a number and, after it, its unit.

Ask | Find the measured Ki of COc1cccc(-c2cnn3c(O)c(-c4ccsc4)cnc23)c1 and report it.
Reply | 0.827 µM

* * *

- Test system: Mus musculus
- METHOD_NOTES: Antianxiety activity was tested in mice at dose of 10 mg/kg using light/dark box test
- Assay type: functional
READOUT_KIND: No. of crosses

GIVEN_SMILES | No. of crosses
CN1C(=O)CN=C(c2ccccc2)c2cc(Cl)ccc21.Oc1c(-c2ccsc2)cnc2c(-c3ccccn3)cnn12 | 26.2

Ask | Find the measured No. of crosses of Oc1c(-c2ccsc2)cnc2c(-c3ccsc3)cnn12 and report it.
Reply | 19.7

Ask | Find the measured No. of crosses of Oc1c(-c2ccsc2)cnc2c(-c3cccc(C(F)(F)F)c3)cnn12 and report it.
Reply | 17.1

Ask | Find the measured No. of crosses of Oc1c(-c2ccsc2)cnc2c(-c3ccccn3)cnn12 and report it.
Reply | 19.6

* * *

- SYSTEM_UNDER_TEST: GABA-A receptor; anion channel
- METHOD_NOTES: Inhibition of [3H]Ro-151788 binding to GABA-A central benzodiazepine receptor of bovine brain membranes
pKi: −log10 of the molar value.
YES means recorded pKi is 8 or above; NO means it is below 8.

These solved cases illustrate the format of a correct answer.
GIVEN_SMILES | ASSIGNED_CLASS
Oc1c(-c2ccsc2)cnc2c(-c3cccc(C(F)(F)F)c3)cnn12 | YES
Oc1c(-c2ccsc2)cnc2c(-c3cccc4ccccc34)cnn12 | NO
Cc1cccc(-c2cnn3c(O)c(-c4ccsc4)cnc23)c1 | NO

Query molecule follows.
Ask | Entry Oc1c(-c2ccsc2)cnc2c(-c3cccnc3)cnn12 : is its pKi no less than 8?
Reply | NO

* * *

- SYSTEM_UNDER_TEST: GABA A receptor alpha-2/beta-2/gamma-2 (Rattus norvegicus, UniProt P18508+P23576+P63138)
- METHOD_NOTES: Binding affinity for recombinant rat GABA-A receptor alpha-2-beta-2-gamma-2 subunits expressed in HEK293 cells
- Format: cell-based
Threshold-based label: Ki under 300 nM gives yes (1), Ki not under 300 nM gives no (0).

These solved cases illustrate the format of a correct answer.
GIVEN_SMILES | ASSIGNED_CLASS
Oc1c(-c2ccsc2)cnc2c(-c3cccc4ccccc34)cnn12 | no (0)
Oc1c(-c2ccsc2)cnc2c(-c3ccccn3)cnn12 | no (0)
Oc1c(-c2ccsc2)cnc2c(-c3ccsc3)cnn12 | yes (1)
Oc1c(-c2ccsc2)cnc2c(-c3cccnc3)cnn12 | no (0)

Query compound follows.
Ask | Lab note: confirm whether the reported Ki for this compound is below 300 nM, equality not counting. compound: Oc1c(-c2ccsc2)cnc2c(-c3cccc(C(F)(F)F)c3)cnn12
Reply | no (0)
